src = ChEMBL document CHEMBL1201862

Test system: SW-620
assay.procedure: NCI tumour cell line growth inhibition, 48 h
Activity calls are given as the source filed them. No stated cut-off is given here; in the data, active = GI50 up to about 1.1 µM and inactive = higher.
Select the correct class. Options are active, inactive and nothing else.

Use the examples below as a reference point.
• C[n+]1c(/C=C/c2ccc(/C=N/NC(=O)c3ccc(C(=O)N/N=C/c4ccc(/C=C/c5cn6ccccc6[n+]5C)cc4)cc3)cc2)cn2ccccc21 = inactive
• Cc1nc(Cl)c(Cl)c(Cl)n1 = active
• CC1(C)C[C@@H]2C1CCC1(C)CC2(O)CC[C@H]1O (stereo partly drawn) = inactive
• CC1=C(Cl)C=CP(=O)(OC(C)C)C1 (stereo not drawn) = inactive
• S=C(c1c[nH]c2ccccc12)N1CCOCC1 = inactive

Answer briefly: the call reported for CCOC(=O)C(=CNc1ccc(NC2=NCC(C)S2)cc1)C(=O)OCC (stereo not drawn) in this assay.
inactive

Answer briefly: the call reported for Cc1ccc2c(=O)cc(Cc3cccs3)[nH]c2n1 in this assay.
inactive

Answer briefly: the call reported for O=C(c1cc(Cl)cc(Cl)c1)N(Cc1cccnc1)C(=S)N(Cc1cccnc1)C(=O)c1cc(Cl)cc(Cl)c1 in this assay.
inactive

Answer briefly: the call reported for OCC1OC(NC(=S)NCSCCC(F)(F)C(F)(F)C(F)(F)C(F)(F)C(F)(F)C(F)(F)F)C(O)C(O)C1O (stereo not drawn) in this assay.
inactive

Answer briefly: the call reported for O=C(/C=C/c1ccccc1)C[C@@H](O)C[C@@H]1CC=CC(=O)O1 in this assay.
inactive

Answer briefly: the call reported for CO/S(=N/S(=O)(=O)c1ccccc1)c1ccccc1[N+](=O)[O-] (stereo not drawn) in this assay.
inactive

Answer briefly: the call reported for O=C(CCC(=O)Nc1ccc(Cl)c(Cl)c1)CC(=O)c1ccc(Cl)cc1 in this assay.
inactive

Answer briefly: the call reported for CCN(CC)c1ccc2c(c1)OC(=O)C(c1nnc(-c3ccc([N+](=O)[O-])cc3)o1)C2 (stereo not drawn) in this assay.
inactive

====

Test system: HOP-62
assay.procedure: NCI tumour cell line growth inhibition, 48 h
Active and inactive are the calls of the source. Rule as the data show it: active = GI50 up to about 1.1 µM and inactive = higher.
Select the correct class. Options are active, inactive and nothing else.

* COCC(=O)[C@]1(O)Cc2c(O)c3c(c(O)c2[C@@H](OC2CC(N)C(O)C(C)O2)C1)C(=O)c1c(OC)cccc1C3=O (stereo not given in full) | active
* CCCCCCCCCCCCCCCCOCC(CN(C)CCN(C)C)OCCCCCCCCCCCCCCCC (stereo not given) | inactive
* COc1ccc2oc(S(=O)(=O)N3CC(CCl)c4ccc(N)cc43)cc2c1 (stereo not given) | active

Answer briefly: the call reported for N#CC12C(=O)N3C(=NC(c4ccco4)NC3c3ccco3)C1(C#N)C(c1ccco1)NC1=C2CCCC1 (stereo not given) in this assay.
inactive

Answer briefly: the call reported for Cc1ccc(C(=O)Nc2ncn(C3CC(O)C(CO)O3)c(=O)n2)cc1 (stereo not given) in this assay.
inactive

====

Test system: RXF 393
assay.procedure: NCI tumour cell line growth inhibition, 48 h
The source made the active and inactive calls. No stated cut-off is given here; in the data, active = GI50 up to about 1.1 µM and inactive = higher.
Select the correct class. Options are TRUE (active), FALSE (inactive) and nothing else.

Use the examples below as a reference point.
* COc1nc(C#CC(C)(C)C)nc(OC)n1 | FALSE
* CS(=O)(=O)c1ccc(/C=N/NC(N)=S)cc1 | FALSE
* OCC1NCC(O)C(O)C1O (stereo not given) | FALSE
* COc1ccc(-c2onc(-c3c(C)cc(C)cc3C)c2C2=NCCN2)cc1 | FALSE
* Cc1c2cnccc2c(C)c2c1[nH]c1ccc(O)cc12 | FALSE
* COc1c2c(cc3c1OCO3)[C@]13C=C[C@H](OC)C[C@H]1N(C2)CC3O (stereo not given in full) | FALSE
* CC[C@@]1(O)C[C@H](OC2CC(N(C)C)C(OC3CC(O)C(OC4CC(O)C(O)C(C)O4)C(C)O3)C(C)O2)c2c(cc3c(c2O)C(=O)c2c(O)ccc(O)c2C3=O)[C@H]1C(=O)OC (stereo not given in full) | TRUE
* CCNC(=O)C1CCCN1C(=O)C(CCCN=C(N)N)NC(=O)C(CC(C)C)NC(=O)C(Cc1c[nH]c2ccccc12)NC(=O)C(Cc1ccc(O)cc1)NC(=O)C(CO)NC(=O)C(Cc1c[nH]c2ccccc12)NC(=O)C(Cc1c[nH]cn1)NC(=O)C1CCC(=O)N1 (stereo not given) | FALSE
* N#CC(C#N)=Cn1c(=S)[nH]c2ccccc21 | FALSE

Continue with the compound presented below.
Answer briefly: the call reported for Cc1ccc(S(=O)(=O)N2CCCSCCN(S(=O)(=O)c3ccc(C)cc3)CCCSCC2)cc1 in this assay.
FALSE

====

System: NCI-H226
assay.procedure: NCI tumour cell line growth inhibition, 48 h
Active and inactive are the calls of the source. Rule as the data show it: active = GI50 up to about 1.1 µM and inactive = higher.
property.measured: GI50

Recorded GI50, per entry:
* Cc1nc(N)c(N2CCNCC2)c(O)n1 | > 100 µM (inactive)
* O=C1CCC2(c3ccc(Cl)cc3)Nc3ccccc3N12 (centres undefined) | 67.9 µM (inactive)
* NC1CC=C(COC(=O)C(O)(c2ccccc2)C2CC2)CC1 (centres undefined) | > 100 µM (inactive)
* CCCCCCCCCCCCCCCCOCC(CN(C)CCN(C)C)OCCCCCCCCCCCCCCCC (centres undefined) | > 100 µM (inactive)

# query: GI50 | item Cc1nn(C(=O)c2ccc(Cl)cc2)c2c1C(c1ccc(Cl)cc1)SC(=N)N2 (centres undefined) | system: NCI-H226
> 10 µM (inactive)

# query: GI50 | item COC(=O)C1=C(O)C(C(=O)OC)[C@@]2(O)[C@@H](C(=O)OC)[C@H](C)[C@@H](C)[C@@H]1[C@@H]2C(=O)OC (some centres undefined) | system: NCI-H226
55.8 µM (inactive)

# query: GI50 | item Cc1cc(S(=O)(=O)[N-]C(=C(C#N)C#N)[n+]2ccc(N(C)C)cc2)c(SCC(=O)O)cc1Cl | system: NCI-H226
> 100 µM (inactive)

# query: GI50 | item CC[C@@H](/C=C\CCC1(C[C@@H](N)CCC=C(C)C)OCCO1)O[Si](C(C)C)(C(C)C)C(C)C | system: NCI-H226
17.4 µM (inactive)

# query: GI50 | item O=C(c1ccc([N+](=O)[O-])cc1[N+](=O)[O-])N(/N=C/C=C/c1ccccc1)c1nnc(-c2ccccc2)c(-c2ccccc2)n1 | system: NCI-H226
32.7 µM (inactive)

====

Test system: LOX IMVI
assay.procedure: NCI tumour cell line growth inhibition, 48 h
Active and inactive are the calls of the source. Rule as the data show it: active = GI50 up to about 1.1 µM and inactive = higher.
Select the correct class. Options are true = active, false = inactive and nothing else.

• COc1ccc2c(C)cc(C)nc2n1 = false
• CC(=O)C(=NNc1ccc(-n2c(C)nc3ccccc3c2=O)cc1)C(C)=O = false
• CS(=O)(=O)c1ccc(/C=N/NC(N)=S)cc1 = false
• Cc1cn2c(/C=C3/C(=O)Nc4ccccc43)c(C)nc2s1 = false
• COc1ccc(Cc2cc(OC)c(OC)c(OC)c2)cc1 = true

Answer briefly: the call reported for Cc1nc2c(=O)[nH]c(=O)n(C)c2[nH]c1=O.c1ccncc1 in this assay.
false

====

System: HOP-62
assay.procedure: NCI tumour cell line growth inhibition, 48 h
Calls of active or inactive are those of the source. Rule as the data show it: active = GI50 up to about 1.1 µM and inactive = higher.
property.measured: GI50

* CC(C)(C)c1cc(C(CO)OCCOCCO)cc(C(C)(C)C)c1O (stereo unspecified) | > 100 µM (inactive)
* CS(=O)(=O)c1ccc(/C=N/NC(N)=S)cc1 | > 100 µM (inactive)
* C[n+]1cccc(/C=C/c2ccc3cccc(O)c3n2)c1 | 59 µM (inactive)
* c1ccc(SCCCC(Sc2ccccc2)Sc2ccccc2)cc1 | > 100 µM (inactive)
* CN(C)CC1CC/C(=C\c2ccc(O)cc2)C1=O (stereo unspecified) | 18.5 µM (inactive)

In the following, a different molecule is considered.
What value of measured GI50 is listed for O=C(O)C(CO)NC(=O)C1C(C(=O)O)C(c2ccccc2[N+](=O)[O-])C=C(c2ccco2)N1c1ccncc1 (stereo unspecified) ?
12.2 µM (inactive)

====

Test system: KM12
assay.procedure: NCI tumour cell line growth inhibition, 48 h
Calls of active or inactive are those of the source. Rule as the data show it: active = GI50 up to about 1.1 µM and inactive = higher.
property.measured: GI50

Recorded GI50, per entry:
- CCC(C)(O)c1cnc(CC(C)C)c(=O)n1O (stereo not given): 37.7 µM (inactive)
- Cc1ccc2c(=O)cc(Cc3cccs3)[nH]c2n1: > 100 µM (inactive)
- COC(=O)C1=C(O)C(C(=O)OC)[C@@]2(O)[C@@H](C(=O)OC)[C@H](C)[C@@H](C)[C@@H]1[C@@H]2C(=O)OC (stereo not given in full): 34.8 µM (inactive)

In the following, a different compound is considered.
What value of measured GI50 is listed for Cc1c(C)c(S(=O)(=O)N(CCCCN)OCCCN)c(C)c2c1OC(C)(C)CC2 ?
17.1 µM (inactive)
